Consider the following compounds; for each one, report its Ki.
# ASSAY TARGET: hCA VII (Homo sapiens)
# Construct: recombinant
# Sequence (P43166 whole entry): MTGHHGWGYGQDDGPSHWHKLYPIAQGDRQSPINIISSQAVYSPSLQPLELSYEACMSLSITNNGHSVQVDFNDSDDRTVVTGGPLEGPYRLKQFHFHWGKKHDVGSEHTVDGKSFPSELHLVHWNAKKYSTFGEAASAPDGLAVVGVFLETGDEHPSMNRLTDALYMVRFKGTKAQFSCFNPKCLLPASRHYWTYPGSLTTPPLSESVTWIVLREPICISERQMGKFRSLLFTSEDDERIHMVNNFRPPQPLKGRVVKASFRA
One number for each entry, in nM.

Use these answered entries as a reference point.
| COMPOUND | ASSAY TARGET | RESULT |
| --- | --- | --- |
| CCCNC(=O)c1ccc(S(N)(=O)=O)cc1 [3b, N-Propyl-4-Sulfamoylbenzamide] | hCA VII (Homo sapiens) | 0.4 |
| CCNC(=O)c1ccc(S(N)(=O)=O)cc1 [3a, N-Ethyl-4-Sulfamoylbenzamide] | hCA VII (Homo sapiens) | 26.7 |

Each of the following entries comes with a recorded value; kindly state Ki for each.
1. C#CCNC(=O)c1ccc(S(N)(=O)=O)cc1 [3c, N-(Prop-2-Yn-1-Yl)-4-Sulfamoylbenzamide]
2. COC(=O)C(C)NC(=O)c1ccc(S(N)(=O)=O)cc1 (racemic) [3j, Methyl (4-Sulfamoylbenzoyl)-DL-Alaninate]
3. COC(=O)[C@H](Cc1ccccc1)NC(=O)c1ccc(S(N)(=O)=O)cc1 [3l]
4. COC(=O)CC[C@@H](NC(=O)c1ccc(S(N)(=O)=O)cc1)C(=O)OC [3g]
5. NS(=O)(=O)c1ccc(C(=O)N2CCOCC2)cc1 [3d]

[0.6, 3.7, 0.5, 0.6, 0.8]

Working through the 4 compounds below one at a time, give Ki for each.
1. COC(=O)[C@H](CC(C)C)NC(=O)c1ccc(S(N)(=O)=O)cc1 [3h, Methyl (4-Sulfamoylbenzoyl)-L-Leucinate]
2. COC(=O)C(NC(=O)c1ccc(S(N)(=O)=O)cc1)C(C)C (racemic) [3f, Methyl (4-Sulfamoylbenzoyl)-DL-Valinate]
3. CCOC(=O)CCCNC(=O)c1ccc(S(N)(=O)=O)cc1 [3k, Ethyl 4-(4-Sulfamoylbenzamido)Butanoate]
4. COC(=O)C[C@@H](NC(=O)c1ccc(S(N)(=O)=O)cc1)C(=O)OC [3i]

1: 0.4; 2: 3.7; 3: 0.4; 4: 0.7
